Origin of measurements: ChEMBL document CHEMBL3774316

Test system: Human immunodeficiency virus 1
Experiment: Antiviral activity against HIV1 3B infected in human C8166 cells assessed as cytopathic effect by counting the number of syncytia by microscopy
Assay type: functional, organism-based
Conditions: Human immunodeficiency virus 1, 3B
Could you please report measured pEC50 for the items listed next?
Give bare numbers, as −log10 of the molar value.

structure.string: Cc1ccc(/C=N/NC(=O)Cn2c(=O)c(C)nc3ccccc32)cc1
measurement.name: pEC50
recorded.result: 4.29

structure.string: COc1ccc(/C=C/C(=O)N2C[C@@H](NC(=O)c3cccnc3)C[C@H]2C(=O)NO)cc1OC
measurement.name: pEC50
recorded.result: 4.48

structure.string: COc1ccc(/C=N/NC(=O)Cn2c(=O)c(C)nc3ccccc32)c(OC)c1
measurement.name: pEC50
recorded.result: 3.90

structure.string: Cc1ccc(S(=O)(=O)N2CC3(C[C@H]2C(=O)N/N=C/c2cccc([N+](=O)[O-])c2)SCCS3)cc1
measurement.name: pEC50
recorded.result: 4.79

Turning to the following compound.
Task: Entry COc1cc(/C=N/NC(=O)Cn2c(=O)c(C)nc3ccccc32)cc(OC)c1OC needs its pEC50 filled in; supply it.
Output: 4.08

###

Target: Aminopeptidase N (Sus scrofa)
Sequence (P15145 whole entry): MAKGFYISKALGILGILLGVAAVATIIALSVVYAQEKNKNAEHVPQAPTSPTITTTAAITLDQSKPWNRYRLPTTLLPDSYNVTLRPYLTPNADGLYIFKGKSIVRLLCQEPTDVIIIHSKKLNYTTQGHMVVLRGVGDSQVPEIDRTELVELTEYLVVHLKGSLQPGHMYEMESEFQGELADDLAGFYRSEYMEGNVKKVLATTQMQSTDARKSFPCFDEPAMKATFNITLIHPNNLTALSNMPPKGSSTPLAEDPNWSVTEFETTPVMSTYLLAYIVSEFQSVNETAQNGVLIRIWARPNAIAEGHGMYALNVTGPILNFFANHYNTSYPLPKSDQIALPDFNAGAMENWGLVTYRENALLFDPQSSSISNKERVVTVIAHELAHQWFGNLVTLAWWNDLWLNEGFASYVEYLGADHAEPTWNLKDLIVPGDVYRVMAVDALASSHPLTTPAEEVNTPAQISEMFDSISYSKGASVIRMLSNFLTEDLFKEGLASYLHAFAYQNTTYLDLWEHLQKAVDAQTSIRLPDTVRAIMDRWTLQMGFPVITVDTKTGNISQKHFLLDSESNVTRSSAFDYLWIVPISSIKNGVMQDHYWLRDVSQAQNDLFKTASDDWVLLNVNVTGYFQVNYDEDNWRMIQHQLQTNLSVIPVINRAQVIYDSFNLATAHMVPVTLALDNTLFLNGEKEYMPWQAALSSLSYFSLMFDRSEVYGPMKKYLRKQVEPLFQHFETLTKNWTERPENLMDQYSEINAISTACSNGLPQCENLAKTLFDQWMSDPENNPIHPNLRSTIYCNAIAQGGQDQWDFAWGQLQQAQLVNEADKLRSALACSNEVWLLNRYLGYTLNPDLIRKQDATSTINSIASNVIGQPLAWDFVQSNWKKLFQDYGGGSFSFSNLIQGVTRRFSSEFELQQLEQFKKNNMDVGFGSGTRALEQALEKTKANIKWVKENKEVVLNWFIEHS
measurement.name: IC50 (µM)
Give bare numbers, in µM.

Record excerpt, results attached:
structure.string: Cc1nc2ccccc2n(CC(=O)N/N=C/c2ccco2)c1=O
assay.target: Aminopeptidase N (Sus scrofa)
IC50 (µM): 103

structure.string: Cc1nc2ccccc2n(CC(=O)NN)c1=O
assay.target: Aminopeptidase N (Sus scrofa)
IC50 (µM): 257

structure.string: Cc1nc2ccccc2n(CC(=O)N/N=C/c2ccc(Cl)cc2)c1=O
assay.target: Aminopeptidase N (Sus scrofa)
IC50 (µM): 449

Give one value of IC50 per listed compound.
1. Cc1nc2ccccc2n(CC(=O)N/N=C/c2ccc(N(C)C)cc2)c1=O
2. COc1cc(/C=N/NC(=O)Cn2c(=O)c(C)nc3ccccc32)cc(OC)c1OC
3. COc1ccc(/C=N/NC(=O)Cn2c(=O)c(C)nc3ccccc32)cc1OC

Output:
1. 331
2. 57.6
3. 481

###

Test: Therapeutic index, ratio of CC50 for human C8166 cells to EC50 for HIV1 3B infected in human C8166 cells
Format: cell-based
Conditions: read-out: Ratio CC50/EC50
Output Criterion met for selectivity ratio not less than 6; output Criterion not met otherwise.

structure.string: Cc1ccc(S(=O)(=O)N2CC3(C[C@H]2C(=O)N/N=C/c2ccccc2Cl)SCCS3)cc1
discrete.label: Criterion met
//
structure.string: Cc1ccc(S(=O)(=O)N2CC3(C[C@H]2C(=O)N/N=C/c2ccccc2F)SCCS3)cc1
discrete.label: Criterion met
//
structure.string: Cc1nc2ccccc2n(CC(=O)N/N=C/Cc2ccccc2)c1=O
discrete.label: Criterion met

Task: Please indicate if the recorded selectivity ratio for Cc1ccc(S(=O)(=O)N2CC3(C[C@H]2C(=O)N/N=C/c2ccccc2[N+](=O)[O-])SCCS3)cc1 meets or exceeds 6.
Output: Criterion not met

Task: Please indicate if the recorded selectivity ratio for Cc1nc2ccccc2n(CC(=O)N/N=C/c2ccc(N(C)C)cc2)c1=O meets or exceeds 6.
Output: Criterion not met

Task: Please indicate if the recorded selectivity ratio for Cc1ccc(/C=N/NC(=O)Cn2c(=O)c(C)nc3ccccc32)cc1 meets or exceeds 6.
Output: Criterion not met

Task: Please indicate if the recorded selectivity ratio for Cc1nc2ccccc2n(CC(=O)NNC(=O)c2c(Cl)cccc2Cl)c1=O meets or exceeds 6.
Output: Criterion not met

Task: Please indicate if the recorded selectivity ratio for COc1ccc(/C=C/C(=O)N2C[C@@H](NC(=O)c3cccnc3)C[C@H]2C(=O)NO)cc1OC meets or exceeds 6.
Output: Criterion met

Task: Please indicate if the recorded selectivity ratio for Cc1ccc(/C=N/NC(=O)[C@@H]2CC3(CN2S(=O)(=O)c2ccc(C)cc2)SCCS3)cc1 meets or exceeds 6.
Output: Criterion met

###

Molecular target: 72 kDa type IV collagenase (Homo sapiens, UniProt P08253)
Sequence (P08253 whole entry): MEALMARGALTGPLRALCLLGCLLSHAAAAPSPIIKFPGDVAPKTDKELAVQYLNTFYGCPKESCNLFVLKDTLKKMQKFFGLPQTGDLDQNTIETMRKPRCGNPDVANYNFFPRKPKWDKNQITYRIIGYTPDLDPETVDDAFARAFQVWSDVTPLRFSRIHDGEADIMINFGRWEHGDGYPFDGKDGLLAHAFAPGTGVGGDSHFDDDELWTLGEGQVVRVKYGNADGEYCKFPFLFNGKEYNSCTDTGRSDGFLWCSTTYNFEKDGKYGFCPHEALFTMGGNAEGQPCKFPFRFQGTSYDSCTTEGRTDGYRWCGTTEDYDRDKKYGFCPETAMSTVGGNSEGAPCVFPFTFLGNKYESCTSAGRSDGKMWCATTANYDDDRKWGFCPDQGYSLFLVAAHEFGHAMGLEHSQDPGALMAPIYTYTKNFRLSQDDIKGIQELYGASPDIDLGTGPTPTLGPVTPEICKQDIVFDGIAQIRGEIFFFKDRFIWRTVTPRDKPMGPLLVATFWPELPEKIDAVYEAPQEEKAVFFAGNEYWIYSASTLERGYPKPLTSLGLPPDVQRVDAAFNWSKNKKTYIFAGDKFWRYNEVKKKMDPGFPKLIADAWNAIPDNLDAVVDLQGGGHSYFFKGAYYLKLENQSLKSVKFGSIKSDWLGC
measurement.name: IC50 (µM)
Give bare numbers, in µM.

Record excerpt, results attached:
structure.string: COc1cc(/C=N/NC(=O)Cn2c(=O)c(C)nc3ccccc32)cc(OC)c1OC
IC50 / µM: 223
--
structure.string: Cc1ccc(S(=O)(=O)N2CC3(C[C@H]2C(=O)N/N=C/c2ccccc2Br)SCCS3)cc1
IC50 / µM: 0.41
--
structure.string: Cc1nc2ccccc2n(CC(=O)N/N=C/c2ccc([N+](=O)[O-])cc2)c1=O
IC50 / µM: 246
--
structure.string: Cc1nc2ccccc2n(CC(=O)NN)c1=O
IC50 / µM: 98
--
structure.string: COc1cccc(/C=N/NC(=O)Cn2c(=O)c(C)nc3ccccc32)c1O
IC50 / µM: 7.17
--
structure.string: Cc1nc2ccccc2n(CC(=O)N/N=C/Cc2ccccc2)c1=O
IC50 / µM: 36
--
structure.string: Cc1nc2ccccc2n(CC(=O)NNC(=O)c2ccccc2)c1=O
IC50 / µM: 187
--
structure.string: Cc1nc2ccccc2n(CC(=O)N/N=C/c2ccc(N(C)C)cc2)c1=O
IC50 / µM: 64.3
--
structure.string: Cc1ccc(/C=N/NC(=O)Cn2c(=O)c(C)nc3ccccc32)cc1
IC50 / µM: 38.6
--
structure.string: Cc1nc2ccccc2n(CC(=O)N/N=C/c2ccco2)c1=O
IC50 / µM: 17.2

Give one value of IC50 per listed compound.
1. Cc1nc2ccccc2n(CC(=O)NNC(=O)c2ccc(Cl)cc2)c1=O
2. Cc1ccc(S(=O)(=O)N2CC3(C[C@H]2C(=O)N/N=C/c2cccc([N+](=O)[O-])c2)SCCS3)cc1
3. Cc1ccc(S(=O)(=O)N2CC3(C[C@H]2C(=O)N/N=C/c2ccccc2[N+](=O)[O-])SCCS3)cc1

Output:
34.8
1.05
0.24

###

Tested on: Human immunodeficiency virus 1
Experiment: Antiviral activity against HIV1 3B infected in human C8166 cells assessed as cytopathic effect by counting the number of syncytia by microscopy
Format: functional, organism-based
Settings: Human immunodeficiency virus 1, 3B
Could you please report measured EC50 for the items listed next?
Answers are plain numbers, in µM.

Record excerpt, results attached:
structure.string: COc1ccc(/C=N/NC(=O)Cn2c(=O)c(C)nc3ccccc32)cc1OC
EC50 / µM: 81
--
structure.string: Cc1nc2ccccc2n(CC(=O)NNC(=O)c2c(Cl)cccc2Cl)c1=O
EC50 / µM: 51.6
--
structure.string: Cc1nc2ccccc2n(CC(=O)NNC(=O)c2ccccc2)c1=O
EC50 / µM: 273
--
structure.string: Cc1ccc(S(=O)(=O)N2CC3(C[C@H]2C(=O)N/N=C/c2ccc(N(C)C)cc2)SCCS3)cc1
EC50 / µM: 37.7

Turning to the following compound.
Task: State measured EC50 of the compound Cc1nc2ccccc2n(CC(=O)N/N=C/c2ccc([N+](=O)[O-])cc2)c1=O with Human immunodeficiency virus 1.
Output: 42.1
